Biological target: T1, "Non-linked" human IL-23 (human p40 coexpressed in 293T cells with human p19:FLAG-tag peptide) (human, UniProt P29460 23-328)
T1 sequence 1: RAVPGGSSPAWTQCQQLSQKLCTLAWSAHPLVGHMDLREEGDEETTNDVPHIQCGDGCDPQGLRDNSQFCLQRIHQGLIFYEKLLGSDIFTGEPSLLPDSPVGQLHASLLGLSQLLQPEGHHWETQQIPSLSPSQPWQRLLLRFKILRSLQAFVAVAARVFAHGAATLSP
T1 sequence 2: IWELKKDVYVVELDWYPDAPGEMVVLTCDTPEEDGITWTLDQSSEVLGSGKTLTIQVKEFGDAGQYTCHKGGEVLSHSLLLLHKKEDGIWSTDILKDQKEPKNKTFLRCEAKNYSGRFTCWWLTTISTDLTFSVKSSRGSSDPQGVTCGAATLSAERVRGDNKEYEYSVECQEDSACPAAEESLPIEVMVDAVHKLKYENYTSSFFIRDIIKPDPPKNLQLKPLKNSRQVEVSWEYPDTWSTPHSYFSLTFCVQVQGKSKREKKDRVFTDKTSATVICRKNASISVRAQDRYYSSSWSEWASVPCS
Assay: cell-based or functional assay
readout_kind: IC50 for blocking of Ba/F3 cell proliferation (µM)
Just the number in µM, nothing appended.

INSERT INTO assay_data (binder, quantitative_result) VALUES
  ('mouse anti-human IL-23p19 antibody 13B5 (antibody, V domains shown) VH: EVQLQQSGPELVKPGASVKMSCKASGYTFTRYLMHWVKQKPGQGLEWIGYINPYNDGTNYNEKFKGKATLTSDKSSSTAYMELSSLTSEDSAVYYCARNWDVGGYWGQGTTLTVSS VL: DIVMTQSPATLSVTPGDRVSLSCRASQSISDYLHWYQQKSHESPRLLIKYASQSISGIPSRFSGSGSGSDFTLSINSVEPEDVGVYYCQNGHSFPFTFGSGTKLEIKR', 0.113);

Query mouse anti-human IL-23p19 antibody 6H12 (antibody, V domains shown) VH: EVHLQQSGPELVKPGASVKMSCKASGYTFNRYLIHWVKQKPGQGLEWIGYINPNNDGTNYNEKFKGKATLTSDKSSSTAYMELSSLTSEDSAVYYCAANWDQAYWGQGTLVTVSA VL: DIVMTQSPATLSVTPGDRVSLSCRASQSISDYLHWYQQKSHESPRLLIKYTSQSISGIPSRFSGSGSGSDFTLSINSVEPEDVGVYYCQNGHSFPFTFGSGTKLEIKR yields IC50 for blocking of Ba/F3 cell proliferation of 1.5

GET /value?item= mouse anti-human IL-23p19 antibody 39G2 (antibody, V domains shown) VH: QVQLQQPGAELVRPGASVKLSCKASGYSFTSSWMNWVKQRPGQGLEWIGMIHPSDSETRTNQKFKDKATLTVDKSSSTAYMQLSSPTSEDSAVYYCARGMITAPTVYWGQGTLVTVSA VL: DIVLTQSPASLAVSLGQRATISCRASKSVSTSAYSYFHWYQQKPGQPPKLLIYLASNLESGVPARFSGSGSGTDFTLNIHPVEEEDAATYYCQHSRELPWTFGGGTKLEITP &field=IC50 for blocking of Ba/F3 cell proliferation returns 0.067
